Reported IC50 values for a set of molecules
Biological target: UniProtKB Q6GI75
Sequence (Q6GI75 1-256): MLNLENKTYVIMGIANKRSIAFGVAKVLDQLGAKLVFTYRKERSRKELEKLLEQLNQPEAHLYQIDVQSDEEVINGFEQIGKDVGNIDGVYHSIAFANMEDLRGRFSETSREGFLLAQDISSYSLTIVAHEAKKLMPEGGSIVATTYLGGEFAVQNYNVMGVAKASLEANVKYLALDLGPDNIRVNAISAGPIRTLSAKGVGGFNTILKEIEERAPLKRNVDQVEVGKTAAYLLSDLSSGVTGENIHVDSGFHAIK
Assay: biochemical
Assay type: biochemical
Details: 200 nM enzyme, 300 μM crotonyl-coenzymeA, 200 μM NADPH, pH 5.5; read-out: Enzyme inhibition or IC50 with SaFabl
measurement_label: IC50 (µM)

In [3]: df
Out[3]:
                                    molecule  measurement_label  value_reported
 0  O=C(Cc1ccccc1Cl)N1CCC(c2ccc3c(c2)OCO3)C1 (centres unmarked)               IC50             2.5
 1  O=C(Cc1ccccc1F)N1CCC(c2ccc3c(c2)OCO3)C1 (centres unmarked)               IC50             2.7
 2  CC(=O)Nc1ccc(/C=C/C(=O)N2CCC(c3ccccn3)C2)cn1 (centres unmarked)               IC50            28.4
 3  O=C(Cc1cccc(F)c1F)N1CCC(c2ccc3c(c2)OCO3)C1 (centres unmarked)               IC50             5.5
 4  CC(=O)Nc1ccc(/C=C/C(=O)N2CCC(c3ccc4c(c3)OCO4)C2)cn1 (centres unmarked)               IC50             1.1
 5  O=C(Cc1cccc(F)c1F)N1CCC(c2ccccc2)C1 (centres unmarked)               IC50             7.3
 6  COc1ccccc1C1CCN(C(=O)/C=C/c2ccc(NC(C)=O)nc2)C1 (centres unmarked)               IC50             3.5
 7  O=C(Cc1ccccc1F)N1CCC(c2ccccc2)C1 (centres unmarked)               IC50               5
 8  O=C(Cc1ccccc1Cl)N1CCC(c2nccs2)C1 (centres unmarked)               IC50               6
 9  O=C(Cc1ccccc1Cl)N1CCC(c2ccccn2)C1 (centres unmarked)               IC50            18.4
10  O=C(Cc1c(F)cccc1Cl)N1CCC(c2ccc3c(c2)OCO3)C1 (centres unmarked)               IC50             1.8

* * *

target: Staphylococcus aureus FabI (SaFabI) (Staphylococcus aureus, UniProt Q6GI75); test: biochemical; type: biochemical
pIC50: −log10 of the molar value.
measurement_label: pIC50

>>> df
                                   compound  value_reported
0  COc1ccc(C2CCN(C(=O)/C=C/c3ccc(NC(C)=O)nc3)C2)cc1 (stereo not shown)            5.45

* * *

tested on: S. aureus strain RN4220; test: microbe, parasite or virus in culture; assay type: cell-based; details: Staphylococcus aureus, RN4220, read-out: MIC S. aureus RN4220 WT
Item-by-item account of MIC
measurement_label: MIC (µg/mL)

In [3]: df
Out[3]:
                                   compound  measurement_label  lt_gt_eq  value_reported
0  CC(=O)Nc1ccc(CC(=O)N2CCC(c3ccccc3)C2)cc1 (stereo not drawn)                MIC         >             200
1  COc1ccccc1C1CCN(C(=O)Cc2cccc(F)c2F)C1 (stereo not drawn)                MIC         =             100
2  COc1ccccc1C1CCN(C(=O)/C=C/c2ccc(NC(C)=O)cc2)C1 (stereo not drawn)                MIC         >             200
3  O=C(Cc1ccccc1F)N1CCC(c2ccccc2)C1 (stereo not drawn)                MIC         =              50
4  COc1ccccc1C1CCN(C(=O)Cc2ccc(NC(C)=O)cc2)C1 (stereo not drawn)                MIC         >             200
5  O=C(Cc1ccccc1Cl)N1CCC(c2ccccc2)C1 (stereo not drawn)                MIC         =            12.5
